- Test system: Shigella sonnei
- experimentSummary: Antimicrobial activity against Shigella sonnei ATCC 9290 by tube dilution method
- Type: functional
reportedProperty: MIC (µg/mL)
Field format: number, assumed µg/mL, no unit text.

Record `CC(/C=C/c1cnc([N+](=O)[O-])n1C)=[N+](\C)[O-]` / Shigella sonnei, MIC recorded as 100

Form field MIC for item `CC(=O)c1cnc([N+](=O)[O-])n1C` on Shigella sonnei: 50

Recorded MIC for `Cn1c(/C=[N+](/C)[O-])cnc1[N+](=O)[O-]` on Shigella sonnei was 20

Reading of MIC for `Cn1c(/C=C/C=O)cnc1[N+](=O)[O-]` with Shigella sonnei: 20

Tested system Shigella sonnei; MIC recorded for `CCCC/C(=C\c1cnc([N+](=O)[O-])n1C)[N+](=O)[O-]` was 50

Record `C=Cc1cnc([N+](=O)[O-])n1C` has Shigella sonnei MIC equal to 20

Readout MIC for O=C1CN(/N=C/c2ccc([N+](=O)[O-])o2)C(=O)N1 [NITROFURANTOIN] , test system Shigella sonnei, was 10

Hey, Shigella sonnei data for `CC(=O)/C=C/c1cnc([N+](=O)[O-])n1C` : MIC came out at 50

Test item `COC(=O)/C=C/c1cnc([N+](=O)[O-])n1C` ; Shigella sonnei; reported MIC was 100

----------
- System: Candida albicans
- experimentSummary: Antimicrobial activity against Candida albicans SKF 2270 by tube dilution method
- Type: functional
MIC listing for selected compounds.

INSERT INTO assay_data (compound, reportedproperty, obsvalue) VALUES
  ('CC(/C=C/c1cnc([N+](=O)[O-])n1C)=[N+](\C)[O-]', 'MIC', '> 100 µg/mL'),
  ('CC(=O)/C=C/c1cnc([N+](=O)[O-])n1C', 'MIC', '> 100 µg/mL'),
  ('CC(/C=C/c1cnc([N+](=O)[O-])n1C)=N\N1CCCC(O)C1 (stereo unspecified)', 'MIC', '> 100 µg/mL'),
  ('Cc1cnc(/N=C/C=C/c2cnc([N+](=O)[O-])n2C)n1C', 'MIC', '> 20 µg/mL'),
  ('Cn1c(/C=C/C=O)cnc1[N+](=O)[O-]', 'MIC', '> 100 µg/mL');

The reported MIC of the compound `CC(/C=C/c1cnc([N+](=O)[O-])n1C)=N\N1CCN(CCO)CC1` was > 100 µg/mL

Value of measured MIC for the entry `Cc1ccc(S(=O)(=O)OCCn2c(C)cnc2[N+](=O)[O-])cc1` : > 100 µg/mL

The recorded MIC for entry `Br.CC(/C=C/c1cnc([N+](=O)[O-])n1C)=N\NC1=NCCN1` equals > 100 µg/mL

GET /value?item= `Cc1cnc([N+](=O)[O-])n1CCOS(C)(=O)=O` &field=MIC returns > 100 µg/mL

// `COC(=O)/C=C/c1cnc([N+](=O)[O-])n1C` : MIC value = > 100 µg/mL

// sample CCCCC(C(O)c1cnc([N+](=O)[O-])n1C)[N+](=O)[O-] (stereo unspecified) , its MIC was 50 µg/mL

----------
Here the recorded MIC is given for each entry.
- Tested on: Shigella sonnei
- experimentSummary: Antimicrobial activity against Shigella sonnei ATCC 9290 by tube dilution method
- Assay type: functional
State just the number; it will be interpreted in µg/mL.

Sample records with MIC:
INSERT INTO assay_data (compound, targetsystem, reportedproperty, scaleunit, obsvalue) VALUES
  ('CCCCC(C(O)c1cnc([N+](=O)[O-])n1C)[N+](=O)[O-] (stereo unspecified)', 'Shigella sonnei', 'MIC', 'µg/mL', 50),
  ('Cn1c(C=O)cnc1[N+](=O)[O-]', 'Shigella sonnei', 'MIC', 'µg/mL', 20),
  ('COC(=O)c1cnc([N+](=O)[O-])n1C', 'Shigella sonnei', 'MIC', 'µg/mL', 100),
  ('Cc1cnc([N+](=O)[O-])n1CCOS(C)(=O)=O', 'Shigella sonnei', 'MIC', 'µg/mL', 100);

Entry `Cn1c(/C=C/C=[N+](/C)[O-])cnc1[N+](=O)[O-]` ; MIC = 20
